test: Cmax in rat at 5 mg/kg, po; assay type: ADME, organism-based; set-up: dose 5 mg/kg, route oral; details: in vivo
measuredParameter: Cmax (ng/mL)

• Cl.N[C@H]1CN(CCc2ccc3c(c2)OCO3)C(=O)C[C@@H]1c1cc(F)c(F)cc1F = 192
• CS(=O)(=O)c1cccc(-c2cc(N3C[C@H](N)[C@@H](c4cc(F)c(F)cc4F)CC3=O)ncn2)c1 = 2000
• CS(=O)(=O)c1cccc(CCN2C[C@H](N)[C@@H](c3cc(F)c(F)cc3F)CC2=O)c1 = 710

----------
target: Dipeptidyl peptidase 9 (Homo sapiens)
Sequence (Q86TI2 whole entry): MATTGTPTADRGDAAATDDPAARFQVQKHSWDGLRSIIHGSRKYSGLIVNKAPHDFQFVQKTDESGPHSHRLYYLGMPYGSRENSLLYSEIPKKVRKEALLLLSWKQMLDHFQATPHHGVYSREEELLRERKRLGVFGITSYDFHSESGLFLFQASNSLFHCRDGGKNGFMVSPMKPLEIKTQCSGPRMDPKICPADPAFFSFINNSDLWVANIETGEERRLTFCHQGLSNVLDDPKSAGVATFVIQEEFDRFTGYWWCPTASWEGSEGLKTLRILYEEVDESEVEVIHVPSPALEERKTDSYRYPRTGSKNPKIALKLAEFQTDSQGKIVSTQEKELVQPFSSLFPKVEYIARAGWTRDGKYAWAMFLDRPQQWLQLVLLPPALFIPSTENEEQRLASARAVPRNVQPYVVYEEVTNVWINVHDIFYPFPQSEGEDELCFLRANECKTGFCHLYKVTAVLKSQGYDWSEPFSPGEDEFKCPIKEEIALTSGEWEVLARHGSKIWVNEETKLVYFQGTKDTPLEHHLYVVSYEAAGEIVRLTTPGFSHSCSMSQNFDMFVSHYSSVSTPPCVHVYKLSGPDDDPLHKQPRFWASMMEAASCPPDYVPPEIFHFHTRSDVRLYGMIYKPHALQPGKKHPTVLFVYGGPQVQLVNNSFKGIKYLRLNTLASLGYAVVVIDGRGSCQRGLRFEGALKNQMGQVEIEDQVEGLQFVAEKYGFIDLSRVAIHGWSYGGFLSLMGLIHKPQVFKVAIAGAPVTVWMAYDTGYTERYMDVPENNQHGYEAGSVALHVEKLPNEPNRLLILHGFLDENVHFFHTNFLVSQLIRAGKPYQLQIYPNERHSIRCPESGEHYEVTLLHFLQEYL
measuredParameter: Ki

• CS(=O)(=O)c1cccc(-c2cc(N3C[C@H](N)[C@@H](c4cc(F)c(F)cc4F)CC3=O)ncn2)c1 = > 30 µM

----------
Listing: bioavailability of selected compounds
assay: Oral bioavailability in rat at 5 mg/kg, po; type: ADME, organism-based; conditions: in vivo
measuredParameter: bioavailability (%)

• CS(=O)(=O)c1cccc(CCN2C[C@H](N)[C@@H](c3cc(F)c(F)cc3F)CC2=O)c1 = 27.6
• CS(=O)(=O)c1cccc(-c2cc(N3C[C@H](N)[C@@H](c4cc(F)c(F)cc4F)CC3=O)ncn2)c1 = 90.3
• Cl.N[C@H]1CN(CCc2ccc3c(c2)OCO3)C(=O)C[C@@H]1c1cc(F)c(F)cc1F = 9

----------
The following molecules are listed with their measured half-life values.
test: Half life in rat at 5 mg/kg, po; type: ADME, organism-based; set-up: dose 5 mg/kg, route oral; conditions: in vivo
measuredParameter: half-life (h)

* CS(=O)(=O)c1cccc(-c2cc(N3C[C@H](N)[C@@H](c4cc(F)c(F)cc4F)CC3=O)ncn2)c1 | 7.8
* CS(=O)(=O)c1cccc(CCN2C[C@H](N)[C@@H](c3cc(F)c(F)cc3F)CC2=O)c1 | 1.8
* Cl.N[C@H]1CN(CCc2ccc3c(c2)OCO3)C(=O)C[C@@H]1c1cc(F)c(F)cc1F | 0.42

----------
Recorded clearance by entry
assay: Plasma clearance in rat at 5 mg/kg, iv; assay type: ADME, organism-based; set-up: dose 5 mg/kg, route intravenous
measuredParameter: clearance (mL/min/kg)

* CS(=O)(=O)c1cccc(-c2cc(N3C[C@H](N)[C@@H](c4cc(F)c(F)cc4F)CC3=O)ncn2)c1 | 3.17
* Cl.N[C@H]1CN(CCc2ccc3c(c2)OCO3)C(=O)C[C@@H]1c1cc(F)c(F)cc1F | 36.3
* CS(=O)(=O)c1cccc(CCN2C[C@H](N)[C@@H](c3cc(F)c(F)cc3F)CC2=O)c1 | 30.2

Where do the numbers come from? From ChEMBL document CHEMBL1143002.
